tested on: HCT-116 colon; assay: NCI tumour cell line growth inhibition, 48 h
Where a SMILES comes first, the peptide text is derived from it. [ ]: non-standard residue; d: D form. The star is where a group is joined. NMeV = CN[C@H](C(=O)O)C(C)C; X29 = COc1ccc(CN*)c(OC)c1; Octanoyl = CCCCCCCC(=O)*; dNMeA = CN[C@H](C)C(=O)O
readoutName: TGI

molecule | TGI
CCCNC(=O)C(C)C1CCC2(C)C=CC(=O)C(C)=C2C1O (centres undefined) | > 100 µM
CCCCCCCC(=O)N[C@H](C(=O)N[C@H](C(=O)N(C)[C@H](C(=O)N1CCC[C@H]1C(=O)N(C)[C@H](C)C(=O)NCc1ccc(OC)cc1OC)C(C)C)C(C)C)C(C)C (Octanoyl-VV[NMeV]P[dNMeA]-X29) | > 50.1 µM
COC(=O)C1(C)CCc2c(OC)ccc(OC)c2C1=O (centres undefined) | > 100 µM

Provide TGI values for the following items, in order.
1. C=C(Br)CNC(=O)Nc1ccc(Cl)c(Cl)c1
2. Cc1ccc(-c2nnc(-c3nn(-c4ccccc4)c4nc5ccccc5nc34)o2)cc1

32.7 µM
25 µM

* * *

system: HS 578T breast; assay: NCI tumour cell line growth inhibition, 48 h; in the data active = GI50 below about 0.43 µM; inactive = the rest
Choose one outcome from this list and give only that: active, inactive

Study these solved cases before continuing.
molecule | label
CN=c1ccc2nc3ccc(N)cc3sc-2c1 | inactive
CN1C(=O)N(C)C2C1NN=c1s/c(=C\c3ccc(C(F)(F)F)cc3)c(=O)n12 (stereo not given) | inactive

Note: attention shifts to another entry.
Look up the recorded call for Cc1ccc(/C=N\NC(=O)c2[nH]c3ccc(F)cc3c2-c2ccccc2)cc1 in this test.
active

* * *

Kindly supply the reported TGI values for the records listed here.
system: COLO 205 colon; assay: NCI tumour cell line growth inhibition, 48 h
Numbers only, in µM.

Worked examples follow.
substanceSmiles | readoutUnits | TGI
COc1cc2c(cc1OCCCn1c(-c3ccccn3)nc3ccccc31)N=C[C@@H]1CCCN1C2=O | µM | 4.9
Cc1cc(S(=O)(=O)Nc2nc3ccccc3nc2-c2cccc([N+](=O)[O-])c2)c(S)cc1Cl | µM | 31.5
C=CC(=O)Nc1cccc(Oc2nc(Nc3ccc(N4CCN(C)CC4)cc3)nc3ccsc23)c1 | µM | 5.27

The recorded TGI for entry COc1ccc(-c2nc(Nc3cc(C)[nH]n3)c3ccccc3n2)cc1 equals 3.61

* * *

system: CCRF-CEM leukemia; test: NCI tumour cell line growth inhibition, 48 h
readoutName: TGI

Worked examples follow.
molecule | TGI
CN(N=O)C(=O)ON1C(=O)CCC1=O | > 100 µM
COc1nc(=O)n(COC(CO)CN2C(=O)c3ccccc3C2=O)cc1Cc1cccc(OCc2ccccc2)c1 (centres undefined) | 60.2 µM
COc1ccc2c(c1)N(CCO)C1=C(C(=O)OC1)C2c1cccc(F)c1 (centres undefined) | > 50 µM
OCCNCCN1CCN(CCCN2c3ccccc3Sc3ccc(C(F)(F)F)cc32)CC1 | > 100 µM

Provide TGI values for the following items, in order.
1. O=C(/C=C/c1ccccc1)CCN1CCOCC1
2. CO[C@H]1CC(O[C@@H]2/C(C)=C/C[C@@H]3C[C@@H](C[C@]4(C=C[C@H](C)[C@@H](C5CCCCC5)O4)O3)OC(=O)[C@@H]3C=C(C)[C@@H](O)[C@H]4OC/C(=C\C=C\[C@@H]2C)[C@]43O)O[C@@H](C)C1O[C@H]1C[C@H](OC)[C@@H](O)[C@H](C)O1 (some centres undefined)
3. C#C[C@]1(O)CCCC2=CC(=O)CC[C@@]21C
4. C=CC(=O)Nc1cccc(Oc2nc(Nc3ccc(N4CCN(C)CC4)cc3)nc3ccsc23)c1
5. COc1cc2c(cc1OCCCn1c(-c3ccccn3)nc3ccccc31)N=C[C@@H]1CCCN1C2=O

["12.1 µM", "4.4 µM", "> 100 µM", "9.88 µM", "> 25 µM"]

Provide TGI values for the following items, in order.
1. CC(=O)/C=C/c1cn(C(=O)OC(C)(C)C)c2ccc(Br)cc12
2. CCCCn1c(N)c(-c2nc3ccccc3o2)sc1=S
3. C/C(=N\Nc1ccc([N+](=O)[O-])cc1[N+](=O)[O-])c1sc(-n2nc(-c3ccccc3)cc2-c2ccccc2)nc1C
4. COc1ccc(-c2cc(-c3ccc(C)cc3)nc3nc(=S)[nH]c(N)c23)cc1
5. COc1cc2c3c(c1)CCCN3CCC2

["> 100 µM", "> 100 µM", "50.9 µM", "64.8 µM", "> 10 µM"]

Provide TGI values for the following items, in order.
1. CCCc1c(-c2ccccc2)[nH]c2ccccc2c1=O
2. CN(C)CCCn1c(=O)c2ccccc2c2ccccc21
3. CCn1c2ccccc2c2ccc3c(c21)C(=O)C=CC3=O
4. O=C(NC1CCCCC1)NS(=O)(=O)c1ccc2c(c1)CCC2
5. CCOc1ccccc1C(=O)N1CCN(c2cc(Cl)cc(Cl)c2)CC1
6. COc1cccc(NC(=O)CSc2nnc(-c3ccc(NC(C)=O)cc3)o2)c1
7. O=C1c2cccnc2C(=O)c2c1c(C(=O)NCCCN1CCCCC1)c1ccccn21
8. COc1cc(C2SCC(=O)N2c2cccc(Cl)c2)cc(OC)c1OC (centres undefined)

["> 100 µM", "> 100 µM", "> 100 µM", "> 100 µM", "33.5 µM", "> 100 µM", "> 100 µM", "91.2 µM"]

Provide TGI values for the following items, in order.
1. O=C1CCCN1C(=O)CS(=O)(=O)c1ccccc1
2. O=c1[nH]c(=O)n(C2CC(O)C(COP(=O)(OCc3ccc([N+](=O)[O-])o3)N(CCCCCl)CC(O)CO)O2)cc1F (centres undefined)

["> 100 µM", "> 100 µM"]

* * *

test system: HT29 colon; assay: NCI tumour cell line growth inhibition, 48 h; in the data active = GI50 below about 0.43 µM; inactive = the rest
Choose one outcome from this list and give only that: active, inactive

substanceSmiles | studyTarget | label
c1cnn2ncc(-c3ccnc(NCCCN4CCOCC4)n3)c2c1 | HT29 colon | inactive

Look up the recorded call for O=C1c2c(c3c4ccccc4[nH]c3c3ccc4ccccc4c23)C(=O)N1CCN1CCNCC1 in this test.
inactive

Look up the recorded call for CCOc1ccccc1C(=O)N1CCN(c2cc(Cl)cc(Cl)c2)CC1 in this test.
active

Look up the recorded call for O=C1c2cccnc2C(=O)c2c1c(C(=O)NCCCN1CCCCC1)c1ccccn21 in this test.
active

Look up the recorded call for COc1cc2c(cc1OCCCn1c(-c3ccccn3)nc3ccccc31)N=C[C@@H]1CCCN1C2=O in this test.
inactive

* * *

tested on: OVCAR-4 ovarian; assay: NCI tumour cell line growth inhibition, 48 h
readoutName: TGI (µM)
Numbers only, in µM.

Worked examples follow.
compound | readoutUnits | TGI
O=C1/C(=C/c2ccccc2[N+](=O)[O-])Cc2ccccc21 | µM | 29.4
COc1cc2c(cc1C1COc3cc4occc4cc3C1=O)OCO2 (stereo unspecified) | µM | 36.5
O=C(O)CN1CCN(CC(=O)O)CC(=O)[O][Hg][O]C(=O)C1 | µM | 34

Provide TGI values for the following items, in order.
1. Cc1ccc(NC(Nc2ccc(C)cc2C)=C(/C=C(\Cl)[N+](=O)[O-])[N+](=O)[O-])c(C)c1
2. COc1ccc(-c2[nH]c3ccccc3c2-c2ccc(OC)cc2)cc1

[12.9, 23.6]

* * *

system: UO-31 renal; experiment: NCI tumour cell line growth inhibition, 48 h
Kindly supply the reported TGI values for the records listed here.

Worked examples follow.
compound | TGI
Fc1ccc(C2SCc3nc4ccccc4n32)c(F)c1 (stereo unspecified) | > 100 µM
COC1=CC(=O)C2=C(C1=O)[C@H]1CC[C@]3(C)[C@@H](O)CC[C@H]3[C@@H]1CC2 | 43.5 µM
CCc1ccc2c(c1)N(CCO)C1=C(C(=O)OC1)C2c1cccc(Br)c1 (stereo unspecified) | 18.1 µM
CCCNC(=O)C(C)C1CCC2(C)C=CC(=O)C(C)=C2C1O (stereo unspecified) | > 100 µM

Provide TGI values for the following items, in order.
1. Nc1n[n+](CC(=O)c2ccccc2)c2sc(-c3ccccc3)nn12
2. O=C1C(=C([O-])c2ccccc2)C(=O)c2ccccc21.O=C1C(=C([O-])c2ccccc2)C(=O)c2ccccc21.[Fe+2]
3. COc1ccc(-c2nc(Nc3cc(C)[nH]n3)c3ccccc3n2)cc1
4. CN(C)c1ccc(NN=C2SC(=Nc3ccccc3)C(=Nc3ccccc3)S2)cc1

> 100 µM
> 100 µM
14.9 µM
> 100 µM

* * *

Kindly supply the reported GI50 values for the records listed here.
test system: EKVX NSCLC; test: NCI tumour cell line growth inhibition, 48 h

Provide GI50 values for the following items, in order.
1. O=C1c2cccnc2C(=O)c2c1c(C(=O)NCCCN1CCCCC1)c1ccccn21
2. CC(C)NCCCn1c(Sc2cc3c(cc2I)OCO3)nc2c(N)ncnc21

1: 1.37 µM; 2: 2.53 µM

Provide GI50 values for the following items, in order.
1. CCc1ccc2c(c1)N(CCO)C1=C(C(=O)OC1)C2c1cccc(Br)c1 (stereo not given)
2. COc1cc2c(cc1OCCCn1c(-c3ccccn3)nc3ccccc31)N=C[C@@H]1CCCN1C2=O
3. OCC1OC(n2cnc3c(N/N=C\c4ccccn4)ncnc32)C(O)C1O (stereo not given)
4. N#Cc1c(N2CCOCC2)nc(=S)[nH]c1-c1ccco1
5. c1cnn2ncc(-c3ccnc(NCCCN4CCOCC4)n3)c2c1
6. Fc1ccc(/C=N/n2c(-c3ccc(F)c(Cl)c3)nn(CNc3ccccc3C(F)(F)F)c2=S)cc1

1. 2.45 µM
2. 5 µM
3. 0.49 µM
4. 5.99 µM
5. 6.67 µM
6. 37.2 µM

Provide GI50 values for the following items, in order.
1. O=C1OCC2=C1C(c1ccccc1)c1cc3c(cc1N2)OCO3 (stereo not given)
2. N#CC1(C(N)=O)C(c2ccc(Cl)cc2)CC(=O)CC1c1ccc(Cl)cc1 (stereo not given)

["2.29 µM", "15.5 µM"]

Values were extracted from PubChem BioAssay (NCI).
